Examples of molecules with documented TGI follow.
- Test system: SF-268 CNS
- protocol notes: NCI tumour cell line growth inhibition, 48 h
recorded metric: TGI

molecule	result value
CCC(C)(C)c1ccc(OCCCCNC(=O)c2ccc3ccccc3c2O)c(C(C)(C)CC)c1	> 100 µM
CCOC(=O)Nc1cc2c(c(N)n1)N=C(c1ccccc1)CO2	15.8 µM
CC(=O)ON1CCCC(P(=O)(OCCSC(=O)C(C)(C)C)OCCSC(=O)C(C)(C)C)C1=O (centres undefined)	60.9 µM
Nc1ccc(N=Nc2c(S(=O)(=O)O)cc3ccccc3c2S(=O)(=O)O)cc1	> 100 µM
CCC[CH2][Sn]([CH2]CCC)([O]C(=O)c1ccc(OC)c(OC)c1OC)[O][Sn]([CH2]CCC)([CH2]CCC)[O]C(=O)c1ccc(OC)c(OC)c1OC	0.842 µM
N#Cc1nn(-c2cc(=O)[nH]c3ccc(Cl)cc23)c(N)c1C#N	> 100 µM
NC(=O)c1c(NC(=O)c2ccccc2)sc2c1CCC(=O)C2	> 100 µM
CCN1CCN(c2cc(C)c3cc(NC(=O)c4ccc(OC)c(OC)c4)ccc3n2)CC1	> 75.1 µM
O=C(Nc1cccc(Cl)c1)C(=O)C(C(=O)c1ccc2ccccc2c1)C1OC(=O)c2ccccc21 (centres undefined)	57.5 µM
O=C(NC[C@H](O)CN1CCc2ccccc2C1)c1cc(NC2COC2)ncn1	97.5 µM
Cc1nc(C)c(C(=O)NNC(=O)C[N+](C)(C)C)cc1C(=O)NNC(=O)C[N+](C)(C)C	> 100 µM
CNCCOC(=O)/C=C1\CC[C@H]2[C@@H]([C@@H](O)C(=O)[C@@H]3[C@]2(C)CC[C@H](O)[C@]3(C)C(=O)OC)[C@H]1C	0.59 µM
O=C(/C=C/c1ccc[nH]1)c1ccc(-n2ccc(C(F)(F)F)n2)cc1	> 100 µM
Cc1ccc(S(=O)(=O)n2c3c(c4ccccc42)CCN2C[C@H]([C@H](C)Br)CC[C@@H]32)cc1	> 100 µM
CC1OC(c2ccc3c(OCc4ccccc4)cccc3c2O)CC(OCc2ccccc2)[C@H]1OCc1ccccc1 (some centres undefined)	> 10 µM
O=C1c2ccccc2C(=O)N1n1c(Cc2ccc([N+](=O)[O-])cc2)n[nH]c1=O	> 100 µM
COCC(OC)C(CC=C(C#N)C#N)OC (centres undefined)	> 100 µM
BrC(=C(c1ccc(OC2CCCCO2)cc1)c1ccc(OC2CCCCO2)cc1)c1ccccc1 (centres undefined)	> 100 µM
CN(C)C1CCN(C(=O)c2ccc(NC(=O)Nc3ccc(-c4nc(N5CCOCC5)c5cccn5n4)cc3)cc2)CC1	13.9 µM

---

- System: SW-620 colon
- protocol notes: NCI tumour cell line growth inhibition, 48 h

molecule	TGI
COc1ccc(OCC(=O)O)c2c1CCCC2=O	> 100 µM
COc1cc(Cl)cc(-c2nn(-c3cccc(NC(=O)c4ccc(N5CCOCC5)c(C(F)(F)F)c4)c3)cc2-c2ccncc2)c1	> 100 µM
CC(=NNC(=S)Nc1ccccc1)c1cccc(C(C)=NNC(=S)Nc2ccccc2)n1	> 100 µM
COc1cccc(N2C(Cl)C(=O)C2c2c[nH]c3ccccc23)c1 (stereo not given)	> 100 µM
O=c1oc2cc(O)ccc2c(O)c1C(c1ccccc1)c1c(O)c2ccc(O)cc2oc1=O	> 100 µM
NS(=O)(=O)c1ccc(N=Nc2c(O)c(C(=O)O)cc3ccccc23)cc1	> 100 µM
CCOC(=O)C1S/C(=N\C(=N)N[N+](=O)[O-])N=C1C (stereo not given)	> 100 µM
Cc1ccc2nc(/C(=C/c3ccc(/C=C(\NC(=O)c4ccccc4)c4nc5ccc(C)cc5[nH]4)c(C)c3)NC(=O)c3ccccc3)[nH]c2c1	> 100 µM
O=C1N=C2Sc3ccc4ccccc4c3N2C1=O	49.1 µM
CCOC(=O)Nc1cc2c(c(N)n1)N=C(c1ccccc1)CO2	98.2 µM
